I'd be grateful if you could share measured growth for these entries.
- Test system: A498 renal
- assay.comment: NCI-60 one-dose screen, 48 h (100 = growth as untreated, 0 = no growth, -100 = all killed)
- condition.set: 10 µM
About 83,000 compounds went through this panel and 20% of them were active in at least one assay; those are over-represented in the sample as a whole.
One number for each entry, in %.

Worked cases, answers included:
So what does the record say about growth for CCCCCN(CCCCC)CC(O)c1cc(Cl)ccc1OC (stereo unspecified) ? 37.4

Do the same for `Brc1ccc2c(c1)c(-c1nc(-c3c[nH]c4ncccc34)cs1)cn2CCN1CCOCC1` please 88.7

Do the same for COC(=O)[C@H](Cc1c[nH]c2ccccc12)NC(=O)[C@@H](OC)[C@@H]1Cc2cc3cc(OC4CC(OC5CC(O)C(O)C(C)O5)C(O)C(C)O4)c(C)c(O)c3c(O)c2C(=O)[C@H]1OC1CC(OC2CC(OC3CC(C)(O)C(O)C(C)O3)C(O)C(C)O2)C(O)C(C)O1 (stereo partly specified) please -52.8

Parameters: items (list). Returns: growth for each item.
1. Oc1ccc2c3c1OC1[C@@H](O)CC[C@@]4(O)[C@@H](C2)N(CC2CCC2)CC[C@]314 (stereo partly specified)
2. CCOc1ccccc1C(=O)OCC(Cl)(Cl)Cl
3. O=C1CCC2(O)[C@@H]3Cc4ccc(O)c5c4[C@]2(CCN3Cc2ccoc2)C1O5 (stereo partly specified)

94.7
88.5
108

----------
I'd be grateful if you could share measured growth for these entries.
- System: SK-MEL-28 melanoma
- assay.comment: NCI-60 one-dose screen, 48 h (100 = growth as untreated, 0 = no growth, -100 = all killed)
- condition.set: 10 µM unless noted
About 83,000 compounds went through this panel and 20% of them were active in at least one assay; those are over-represented in the sample as a whole.
Numbers only, in %.

Worked cases, answers included:
So what does the record say about growth for `CC[C@H](C)[C@@H]([C@@H](CC(=O)N1CCC[C@H]1[C@H](OC)[C@@H](C)C(=O)N[C@H](C)[C@@H](O)c1ccccc1)OC)N(C)C(=O)[C@@H](NC(=O)[C@@H](NC)C(C)C)C(C)C` ? 63.5

Do the same for CC(CC1CCCCC1)NCc1ccccc1 (configuration not stated) please 103

Do the same for `Cc1cc(C)cc(Nc2nc3c(s2)CC[C@@]2(C)C3=CC[C@@H]3[C@@H]2CC[C@]2(C)C(=O)CC[C@@H]32)c1` please 59.1

Do the same for `O=C1C(=Cc2cn(Cc3ccccc3)c3ccccc23)C(=O)N(Cc2ccccc2)C(=O)N1Cc1ccccc1` please 110

Do the same for Nc1nc([Se])c2ncn(C3OC(CO)C(O)C3O)c2n1 (configuration not stated) please 98.9

Parameters: items (list). Returns: growth for each item.
1. COc1ccc(S(=O)(=O)Nc2c(/C=C\c3cc(OC)c(OC)c(OC)c3)ccc(OC)c2O)cc1OC
2. CC1=C(CCCNS(C)(=O)=O)C2=C(C)C3(CC3)[C@@](C)(O)C(=O)C2=C1
3. Cc1sc2c(c1C)C(c1ccc(Cl)cc1)=N[C@@H](CC(=O)OC(C)(C)C)c1nnc(C)n1-2
4. CCCC[C@H](NC(=O)[C@H]1CCCCN1C)C(=O)N(C)[C@H](C[C@@H](OC(C)=O)c1nc(C(=O)N[C@@H](Cc2ccccc2)C[C@H](C)C(=O)OCC)cs1)C(C)C

[58.6, -28.4, 38.4, 67.4]

----------
I'd be grateful if you could share measured growth for these entries.
- System: ACHN renal
- assay.comment: NCI-60 one-dose screen, 48 h (100 = growth as untreated, 0 = no growth, -100 = all killed)
- condition.set: 10 µM unless noted
About 83,000 compounds went through this panel and 20% of them were active in at least one assay; those are over-represented in the sample as a whole. Active and inactive are the calls of the source. The calls were made as follows: active = growth percent below 10; inactive = the rest.

So what does the record say about growth for CCC1(C)CC(CCNCc2ccccc2O)(c2ccc(C)cc2)CCO1 (stereo unspecified) ? 102% (inactive)

Parameters: items (list). Returns: growth for each item.
1. Cc1cc(-c2nc3cc(F)ccc3[se]2)cc(F)c1N
2. COc1ccc2nc(NC(=O)COc3cc(/C=C\c4cc(OC)c(OC)c(OC)c4)ccc3OC)sc2c1
3. Nc1ncnc2n[nH]nc12
4. CC(C)COC(C[N+](=O)[O-])C(Cl)(Cl)Cl (stereo unspecified)
5. CC(=O)c1ccc(C(=O)NCC2CCC3(CC2)OOC2(CCCCC2)OO3)cc1
6. O=C1C2C(C(=O)[N]1[Hg][c]1ccccc1)C1(Cl)C(Cl)=C(Cl)C2(Cl)C1(Cl)Cl (stereo unspecified)
7. COC[C@@H]1C[C@@]2(C)[C@@H](CC[C@@H]3[C@@H]2CC[C@@]2(C)[C@H]3CC[C@]2(C)O)CC1=O
8. Nc1ccc(Cl)cc1

79% (inactive)
42.8% (inactive)
46.5% (inactive)
107% (inactive)
64.6% (inactive)
-98.5% (active)
92.6% (inactive)
108% (inactive)

Parameters: items (list). Returns: growth for each item.
1. Clc1ccc(CO/N=C(\Cn2ccnc2)c2ccc(Cl)cc2Cl)c(Cl)c1
2. C[Se]C(=O)c1ccccc1OC(C)=O

6.26% (active)
85.9% (inactive)

----------
I'd be grateful if you could share measured growth for these entries.
- System: 786-0 renal
- assay.comment: NCI-60 one-dose screen, 48 h (100 = growth as untreated, 0 = no growth, -100 = all killed)
- condition.set: 10 µM unless noted
Compounds without any hit were thinned out: in the full panel of roughly 83,000, 20% have a hit.
Answers are plain numbers, in %.

Worked cases, answers included:
So what does the record say about growth for `CCOC(=O)[C@@H](C)C[C@H](Cc1ccccc1)NC(=O)c1csc([C@@H](C[C@H](C(C)C)N(C)C(=O)[C@H](CCC(C)C)NC(=O)[C@H]2CCCCN2C)OC(C)=O)n1` ? 3.93

Do the same for `CCOc1ccccc1C(=O)OCC(Cl)(Cl)Cl` please 99.6

Do the same for `CC(=O)OCc1cc[c]([Hg][Cl])o1` please 24.5

Do the same for `COc1cccc2c1c(C(=O)C(=O)Nc1cc(C)no1)cn2Cc1ccc(F)cc1` please 64.1

Do the same for `CCOC(=S)S[C@H]1C[C@@H]2[C@H](CC[C@]3(C)C(=O)CC[C@@H]23)[C@@]2(C)CCC(=O)C=C12` please 102

Do the same for `CC(=O)ONc1ccc([N+](=O)[O-])c(C(F)(F)F)c1` please 97.6

Parameters: items (list). Returns: growth for each item.
1. CCCCOc1ccc(C(N)Cc2ccccc2)cc1 (centres undefined)
2. COC[C@@H]1C[C@@]2(C)[C@@H](CC[C@@H]3[C@@H]2CC[C@@]2(C)[C@H]3CC[C@]2(C)O)CC1=O
3. CCCC[C@H](NC(=O)[C@H]1CCCCN1C)C(=O)N(C)[C@H](C[C@@H](OC(C)=O)c1nc(C(=O)N[C@@H](Cc2ccccc2)C[C@H](C)C(=O)OCC)cs1)C(C)C
4. C[N+](C)(C)Cc1cc(Cl)ccc1O
5. CCNc1nc(Cl)nc(NCC)n1
6. CC1(C)N=C(N)N=C(N)N1c1ccc(OCCCNC(=O)Nc2ccc(S(=O)(=O)F)cc2)c(Cl)c1
7. O=C(CCCC1CCCCC1)OCC(Cl)(Cl)Cl

1. 75.3
2. 94.9
3. 3.81
4. 100
5. 108
6. 27.5
7. 102

----------
- Tested on: LOX IMVI melanoma
- assay.comment: NCI-60 one-dose screen, 48 h (100 = growth as untreated, 0 = no growth, -100 = all killed)
- condition.set: 10 µM unless noted
The panel holds about 83,000 compounds, 20% with a hit somewhere; the sample as a whole holds those more often.
assay.readout: growth (%)
Numbers only, in %.

Worked cases, answers included:
So what does the record say about growth for `CC(=O)[C@H]1CC[C@H]2[C@@H]3CC[C@H]4C[C@H](N)CC[C@]4(C)[C@H]3CC[C@]12C` ? 69.4

Do the same for `OCCCCCNC1CCCCC1` please 101

Do the same for `CC1=C([Te]c2ccc(O)cc2)C(=O)c2ccccc2C1=O` please 5.05

Do the same for `C=CC[n+]1ccc(-c2cc[n+](CC=C)cc2)cc1` please 101

Do the same for `c1cnc2[nH]cc(-c3csc(-c4cn(CCCCN5CCCCC5)c5ccccc45)n3)c2c1` please 84.2

Do the same for `COC(=O)[C@@H](C)C[C@H](Cc1ccccc1)NC(=O)c1nc([C@@H](C[C@H](C(C)C)N(C)C(=O)[C@@H](NC(=O)[C@H]2C[C@H](O)CCN2C)C(C)C)OC(C)=O)sc1C(C)C` please 8.19

Do the same for `CC(=O)Oc1ccccc1C(=O)NCCC[Se]C#N` please -49

Do the same for `CCCC[C@H](NC(=O)[C@H]1CCCN1C)C(=O)N(C)[C@H](C[C@@H](OC(C)=O)c1nc(C(=O)N[C@@H](Cc2ccccc2)C[C@H](C)C(=O)OCC)cs1)C(C)C` please 20.8

Parameters: items (list). Returns: growth for each item.
1. CC(C)=CCC/C(C)=C/C=N\N=C(/N)N[N+](=O)[O-]
2. Cn1cc(-c2csc(-c3cn(CCN4CCOCC4)c4ccc(F)cc34)n2)c2cccnc21
3. CC(C)=CC1C(C(=O)OCc2cccc(Oc3ccccc3)c2)C1(C)C (configuration not stated)
4. ClCCN(CCCl)c1ccc(OCc2ccccc2)cc1
5. CC1CCCC(C[N+](C)(C)C)C1=O (configuration not stated)

[94.8, 27.9, 93.4, 38.9, 50.2]
